# ASSAY: Stability in human liver microsomes assessed as compound remaining at 1.5 uM in presence of NADPH measured after 60 mins by liquid chromatography/tandem mass spectrometric analysis
# Assay type: ADME, microsome
# ASSAY SETUP: read-out: Stability
With a cut-off of 70%, any remaining at 1 h, 1.5 µM strictly below it is called Satisfied; any remaining at 1 h, 1.5 µM meeting it or above is called Not satisfied.

> print(dat)
                                   molecule  class.assignment
1    O=C(Nc1ccc2sc(-c3ccccc3)nc2c1)c1ccccc1         Satisfied
2  O=C(Nc1ccc2sc(-c3ccc(F)c(F)c3)nc2c1)N1CC[C@H](F)C1         Satisfied
3  O=C(Nc1ccc2sc(-c3ccc(F)c(F)c3)nc2c1)N1C[C@@H](F)[C@H](F)C1     Not satisfied
4    O=C(Nc1ccc2sc(-c3ccccc3)nc2c1)N1CCCCC1         Satisfied
5    O=C(Nc1ccc2oc(-c3ccccc3)nc2c1)N1CCCCC1     Not satisfied
6  O=C(Nc1ccc2sc(-c3ccc(F)c(F)c3)nc2c1)N1CCCC1         Satisfied
7  O=C(Nc1ccc2sc(-c3ccc(F)c(F)c3)nc2c1)N1CCC(F)C1 (configuration not stated)     Not satisfied
